Measured values drawn from ChEMBL document CHEMBL4196081 for this set.

Experiment: Cytotoxicity against human THP1 cells assessed as cell viability at 75 ug/ml after 24 hrs by MTT assay relative to control
Type: cell-based
Conditions: THP-1 cells, read-out: Activity

compound	viability at 24 h, 75 ug/ml, %
[H]/N=C(/N)N[C@H]1[C@H](O)[C@@H](O)[C@H](O[C@@H]2O[C@@H](C)[C@](O)(C=O)[C@H]2O[C@@H]2O[C@@H](CO)[C@H](O)[C@@H](O)[C@@H]2NC)[C@@H](N/C(N)=N\[H])[C@@H]1O [STREPTOMYCIN]	80
O=C(OC[C@H]1O[C@@H](n2cc(COc3ccc4c(-c5ccccc5)cc(=O)oc4c3)nn2)[C@H](OC(=O)c2ccccc2)[C@@H]1OC(=O)c1ccccc1)c1ccccc1	81
NNC(=O)c1ccncc1 [ISONIAZID]	50
